System: CAKI-1
procedure-details: NCI tumour cell line growth inhibition, 48 h
Activity calls are given as the source filed them. Cut-off read from the data, not from the text of the source: active = GI50 up to about 1.1 µM and inactive = higher. Residues, ends and D or L forms follow the SMILES beside them. Groups on a side chain read outwards from the residue. *: point of attachment. Cbz = O=C(OCc1ccccc1)*; Boc = CC(C)(C)OC(=O)*
Listed here: items and their measured GI50.

Solved cases below.
COc1ccc2c(c1)N=C1CSC(c3ccccc3Cl)N1C2 (stereo unspecified)	3.31 µM (inactive)
CC[S+]([O-])c1c2cc(OC)ccc2nc2ccc(OC)cc12 (stereo unspecified)	5.06 µM (inactive)
O=C(Nc1ccc(Cl)cc1)NS(=O)(=O)c1c(-c2ccccc2)oc2ccccc2c1=O	52.1 µM (inactive)
CCOC(=O)C(=Cc1ccccc1Cl)C(=O)OCC	2.02 µM (inactive)
CC(C)CC(NC(=O)OCc1ccccc1)C(=O)NCCCCC(NC(=O)C(CCCCNC(=O)C(CC(C)C)NC(=O)OCc1ccccc1)NC(=O)C(CCCCNC(=O)C(CC(C)C)NC(=O)OCc1ccccc1)NC(=O)C(CCCCNC(=O)C(CC(C)C)NC(=O)OCc1ccccc1)NC(=O)OC(C)(C)C)C(=O)O (stereo unspecified) (Boc-K([Leu-Cbz])K([Leu-Cbz])K([Leu-Cbz])K([Leu-Cbz])-OH; configuration not given here)	> 25 µM (inactive)

Name the reported GI50 value associated with the compound OC1COC(n2c3ccc(Br)cc3c3ccc4c5ccccc5[nH]c4c32)C(O)C1O (stereo unspecified)
3.13 µM (inactive)

###

System: CAKI-1
procedure-details: NCI tumour cell line growth inhibition, 48 h
The source made the active and inactive calls. Cut-off read from the data, not from the text of the source: active = GI50 up to about 1.1 µM and inactive = higher.
measured-quantity: GI50

Solved cases below.
C/C(=N\O)C(CN1CCCCC1)C(c1ccccc1)c1c(O)c2ccccc2oc1=O (stereo not given)	> 100 µM (inactive)
Nc1ccc(-c2ccc(Nc3cc(S(=O)(=O)O)c(N)c4c3C(=O)c3ccccc3C4=O)cc2)c(S(=O)(=O)O)c1	> 100 µM (inactive)
Cc1nc(-n2[nH]c(C)c(CCO)c2=O)[nH]c(=O)c1CCO	> 100 µM (inactive)

Name the reported GI50 value associated with the molecule O=C(Nc1ccc(Br)c2ccccc12)c1ccc2ccccc2c1O
3.95 µM (inactive)

Name the reported GI50 value associated with the molecule S=c1sc2c(S)nc(S)nc2n1-c1ccccc1
> 100 µM (inactive)

Name the reported GI50 value associated with the molecule O=C1NC2(NC(=O)C1=O)Nc1ccccc1S2
62.5 µM (inactive)

Name the reported GI50 value associated with the molecule c1ccc(CSP234N5CCN2CCN3CCN4CC5)c(CSP234N5CCN2CCN3CCN4CC5)c1
> 100 µM (inactive)

Name the reported GI50 value associated with the molecule CCCCOC(=O)N[C@H]1CCc2cc(OC)c(OC)c(OC)c2-c2ccc(SC)c(=O)cc21
< 0.01 µM (active)

Name the reported GI50 value associated with the molecule CC(C)(C)NC(NC(C)(C)C)=C(C(Cl)=C(Cl)Cl)[N+](=O)[O-]
> 100 µM (inactive)

Name the reported GI50 value associated with the molecule O=C(/C=C\c1ccsc1)c1ccccc1
3.71 µM (inactive)

###

Test system: MDA-MB-231
procedure-details: NCI tumour cell line growth inhibition, 48 h
Calls of active or inactive are those of the source. No stated cut-off is given here; in the data, active = GI50 up to about 1.1 µM and inactive = higher.
measured-quantity: GI50

Solved cases below.
O=C(O)CCC(NC(=O)c1ccc(Nc2nc3cc(C(F)(F)F)ccc3nc2C(=O)O)cc1)C(=O)O (stereo unspecified)	> 100 µM (inactive)
CC[S+]([O-])c1c2cc(OC)ccc2nc2ccc(OC)cc12 (stereo unspecified)	5.62 µM (inactive)
CC1(C)N=[N+]([O-])C1(C)C	> 100 µM (inactive)
C=CCCC1CCCCNC1=S (stereo unspecified)	> 10 µM (inactive)
CNC(=S)NNc1ncnc2c1c(-c1ccc(Cl)cc1)cn2-c1ccc(C)cc1	7.8 µM (inactive)

As a next step, examine the molecule that follows.
Name the reported GI50 value associated with the molecule Cc1ccc(-c2nnc(CCCCCCCCc3nnc(-c4ccc(C)cc4O)n3N)n2N)c(O)c1
> 100 µM (inactive)

Origin of measurements: ChEMBL document CHEMBL1201862
